Could you please report measured Z-score for the items listed next?
# testedOn: Human IP6K1 (Homo sapiens)
# Construct: GST (N, cleaved yes); made in house; host or cells: C43 E. coli, pGEX-6P-2
# assayOverview: IP6K1 high-throughput screen of the Sigma LOPAC (ADP-Glo Max, single point);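 further: final compound concentration 10µM in 5% DMSO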
# Format: biochemical
# condition: LOPAC single-point screen; Z-score from raw signal with plate average and StDev
One number for each entry.

Working through the 4 compounds below one at a time, give Z-score for each.
1. O=S(=O)(O)C1CCNCC1
2. O=C(O)CNC(=O)C(CS)Cc1ccccc1 (racemic)
3. O=C(O)c1cc[c]([Hg][Cl])cc1
4. NCCCP(=O)(O)O

[-0.2123, -0.1354, -0.177, -0.2957]

* * *

# testedOn: Human IP6K1 (Homo sapiens, UniProt Q92551)
# Construct: GST (N, cleaved yes); made in house; host or cells: C43 E. coli, pGEX-6P-2
# Sequence (Q92551 whole entry): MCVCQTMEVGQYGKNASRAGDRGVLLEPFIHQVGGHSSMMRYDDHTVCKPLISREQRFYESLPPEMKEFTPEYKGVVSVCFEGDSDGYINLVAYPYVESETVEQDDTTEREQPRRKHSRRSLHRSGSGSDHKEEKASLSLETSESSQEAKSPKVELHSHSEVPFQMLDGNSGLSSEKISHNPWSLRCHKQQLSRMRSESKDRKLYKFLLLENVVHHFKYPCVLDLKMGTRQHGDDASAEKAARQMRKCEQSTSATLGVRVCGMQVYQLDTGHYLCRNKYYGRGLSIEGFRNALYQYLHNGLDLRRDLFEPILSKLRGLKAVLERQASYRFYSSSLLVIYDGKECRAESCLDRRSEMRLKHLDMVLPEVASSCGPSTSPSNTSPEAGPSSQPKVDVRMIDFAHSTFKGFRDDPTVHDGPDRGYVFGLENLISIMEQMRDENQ
# assayOverview: IP6K1 high-throughput screen of the Sigma LOPAC (ADP-Glo Max, single point);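 further: final compound concentration 10µM in 5% DMSO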
# Assay type: biochemical
# condition: LOPAC single-point screen, ADP-Glo Max luminescence raw signal per well
Counter-ions that a name gives are not always drawn.
Classification by Raw Signal follows these ranges: band A = under 50000, band B = from 50000 up to 60000, band C = 60000 and over

CC(N)(Cc1ccc(O)c(O)c1)C(=O)O (racemic)
band A
N=C(N)c1ccc(N)cc1 [4-Aminobenzamidine dihydrochloride]
band B
CCNC(=O)N1CCN(CCCC(c2ccc(F)cc2)c2ccc(F)cc2)CC1 [Amperozide hydrochloride]
band B
CC(C)Oc1cccnc1N(C)C1CCN(Cc2ccccc2)CC1.O=C(O)/C=C\C(=O)O [U-101958 maleate]
band C

Entry O=c1c(O)c(-c2ccc(O)cc2O)oc2cc(O)cc(O)c12 [Morin] belongs to which category?
band A

Place this compound in its band: Cc1oncc1C(=O)Nc1ccc(C(F)(F)F)cc1 [Leflunomide]
band C

Where would COC(=O)c1c(-c2cc(OC)c(OC)c(OC)c2)c2ccnc(OCc3ncccn3)c2c(=O)n1Cc1ccnc(C)c1 [T-0156] land among the classes by reported Raw Signal?
band B

Into which bin does this compound go? C[N+](C)(C)CC#CCN1CCCC1=O [Oxotremorine methiodide]
band C

Kindly identify the class of O=C(Nc1cc(C(=O)Nc2ccc(S(=O)(=O)[O-])cc2S(=O)(=O)[O-])cc(C(=O)Nc2ccc(S(=O)(=O)[O-])cc2S(=O)(=O)[O-])c1)Nc1cc(C(=O)Nc2ccc(S(=O)(=O)[O-])cc2S(=O)(=O)[O-])cc(C(=O)Nc2ccc(S(=O)(=O)[O-])cc2S(=O)(=O)[O-])c1.[Na+].[Na+].[Na+].[Na+].[Na+].[Na+].[Na+].[Na+] [NF449 octasodium salt] .
band A

* * *

# testedOn: Human IP6K1 (Homo sapiens, UniProt Q92551)
# Construct: GST (N, cleaved yes); made in house; host or cells: C43 E. coli, pGEX-6P-2
# assayOverview: IP6K1 high-throughput screen of the Sigma LOPAC (ADP-Glo Max, single point);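 further: final compound concentration 10µM in 5% DMSO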
# Type: biochemical
# condition: LOPAC single-point screen, ADP-Glo Max raw signal per well
Structures can show the parent of a compound that is named as a salt.
assayReadout: Raw Signal
Numbers only.

Recorded Raw Signal, per entry:
Br.Oc1cc2c(c(Cl)c1O)CCNCC2c1ccccc1 (racemic) [(±)-6-Chloro-PB hydrobromide]
55203
CCCCCCCCCCCCCC(=O)O[C@@H]1[C@@H](C)[C@@]2(O)[C@@H](C=C(CO)C[C@]3(O)C(=O)C(C)=C[C@@H]23)[C@@H]2C(C)(C)[C@]12OC(C)=O [Phorbol 12-myristate 13-acetate]
57693
COc1ccc(CCN(C)CCc2ccc(OC)c(OC)c2)cc1OC.Cl [YS-035 hydrochloride]
55463
COc1ccc(CCN)cc1O.Cl
55159
NC(Cc1cccc(-c2ccccc2CP(=O)(O)O)c1)C(=O)O (centres unmarked)
56365
Cl.OCc1c[nH]cn1 [4-Imidazolemethanol hydrochloride]
56297
O=C(c1ccc(OCCN2CCCCC2)cc1)c1c(-c2ccc(O)cc2)sc2cc(O)ccc12 [Raloxifene hydrochloride]
54124
Cc1nc2ccccn2c(=O)c1CCN1CCC(C(=O)c2ccc(F)cc2)CC1
53743

Could you report Raw Signal for every entry in the following list?
1. CCC(=O)N1CCN(C(=O)c2ccccc2)CC1
2. CC(/C=C/c1cccc(Oc2ccc(F)cc2)c1)N(O)C(N)=O (centres unmarked) [BWB70C]
3. CCCN(CCC)C1Cc2cc(OC)c(OC)cc2C1.O=C(O)/C=C\C(=O)O [U-99194A maleate]
4. CC(C)N(CCC(=O)c1ccc2ccccc2c1)Cc1ccccc1.Cl [ZM 39923 hydrochloride]
5. CN[C@@H](C)[C@H](O)c1ccccc1.CN[C@@H](C)[C@H](O)c1ccccc1.O=S(=O)(O)O [(-)-Ephedrine hemisulfate]

1: 55630; 2: 58720; 3: 57664; 4: 54461; 5: 54708

Kindly give each listed record's Raw Signal.
1. CSc1nc(N)c2ncn([C@@H]3O[C@H](COP(=O)([O-])OP(=O)([O-])OP(=O)([O-])[O-])[C@@H](O)[C@H]3O)c2n1.[Na+].[Na+].[Na+].[Na+]
2. OC[C@H]1NC[C@@H](O)[C@@H]1O
3. N[C@H](C(=O)O)[C@H]1C[C@@H]1C(=O)O
4. NCCCCN [Putrescine dihydrochloride]

[58230, 54688, 55555, 56490]

* * *

# testedOn: Human IP6K1 (Homo sapiens)
# Construct: GST (N, cleaved yes); made in house; host or cells: C43 E. coli, pGEX-6P-2
# assayOverview: IP6K1 high-throughput screen of the Sigma LOPAC (ADP-Glo Max, single point);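 further: final compound concentration 10µM in 5% DMSO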
# Format: biochemical
# condition: LOPAC single-point screen; Z-score from raw signal with plate average and StDev
Where a name gives a salt, the structure may show the parent alone.
Use fulfilled when the recorded Z-score is no lower than -0.3; use not fulfilled when it is lower.

N[C@H](CO)C(=O)O
not fulfilled
COc1cc2nc(N3CCN(C(=O)C4CCCO4)CC3)nc(N)c2cc1OC (stereo not drawn) [Terazosin hydrochloride]
not fulfilled
CN/C(=N\c1ccc(C2=NNC(=O)CC2C)cc1)NC#N (stereo not drawn)
fulfilled

// inclusive: Z-score at least -0.3? input: CC(C)NC[C@H](O)COc1ccc(CC(N)=O)cc1 [S(-)-Atenolol]
fulfilled

For this compound, is measured Z-score -0.3 or higher? CC1CNCCN1S(=O)(=O)c1cccc2cnccc12.Cl.Cl (stereo not drawn)
fulfilled

* * *

# testedOn: Human IP6K1 (Homo sapiens)
# Construct: GST (N, cleaved yes); made in house; host or cells: C43 E. coli, pGEX-6P-2
# assayOverview: IP6K1 high-throughput screen of the Sigma LOPAC (ADP-Glo Max, single point);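 further: final compound concentration 10µM in 5% DMSO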
# Format: biochemical
# condition: LOPAC single-point screen; Z-score from raw signal with plate average and StDev
Structures can show the parent of a compound that is named as a salt.
Mark -1 for Z-score values under -0.2, and 1 for everything at or above.

COc1ccc(CCN(C)CCc2ccc(OC)c(OC)c2)cc1OC.Cl [YS-035 hydrochloride]
1

Form field: Z-score at least -0.2? Entry: `Cn1c(=O)c2[nH]c(-c3ccc(S(=O)(=O)O)cc3)nc2n(C)c1=O`
1

Dear colleague, could you confirm whether `Nc1nnc(-c2cccc(Cl)c2Cl)c(N)n1` has Z-score at or above -0.2?
1

API: above_or_equal(metric=Z-score, cutoff=-0.2) for item `S=C(Nc1ccccc1)Nc1nccs1`
1

Does Z-score meet or surpass -0.2 for Cl.Nc1cc(Cl)c(N=C2NCCN2)c(Cl)c1 [p-Aminoclonidine hydrochloride] ?
-1

Would you say `CC[C@H](NC(=O)c1c(C)c(-c2ccccc2)nc2ccccc12)c1ccccc1` shows Z-score at minimum -0.2?
1

Can COc1ccccc1N1CCN(CCN(C(=O)c2ccc(F)cc2)c2ccccn2)CC1.Cl.Cl [p-MPPF dihydrochloride] be said to have Z-score at or above -0.2?
-1

Determine whether this compound has Z-score no lower than -0.2: Oc1cc2c(cc1O)[C@H]1c3ccccc3CN[C@@H]1CC2 (racemic) [Dihydrexidine hydrochloride]
-1

* * *

# testedOn: Human IP6K1 (Homo sapiens)
# Construct: GST (N, cleaved yes); made in house; host or cells: C43 E. coli, pGEX-6P-2
# assayOverview: IP6K1 high-throughput screen of the Sigma LOPAC (ADP-Glo Max, single point);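 further: final compound concentration 10µM in 5% DMSO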
# Assay type: biochemical
# condition: LOPAC single-point screen, ADP-Glo Max luminescence raw signal per well
# binarize Raw Signal: threshold 60000 inclusive, high side 1.0, low side 0.0

Consider the following illustrative entries.
CC(COc1ccc(/C=C/c2ccccc2)cc1)[N+](C)(C)C.[I-] (centres unmarked)
1.0
CN1C2CCC1CC(NC(=O)c1nn(C)c3ccccc13)C2.O=C(O)/C=C\C(=O)O (centres unmarked) [LY-278,584 maleate]
0.0
CC(C)C1C2CCC(C2)C1N.Cl (racemic) [AGN 192403 hydrochloride]
0.0
COc1ccc2c(c1O)-c1cccc3c1[C@@H](C2)N(C)CC3.Cl [R(-)-Apocodeine hydrochloride]
0.0
Cc1nc(N=Nc2ccc(C(=O)O)cc2)c(COP(=O)(O)O)c(C=O)c1O [MRS 2159]
0.0
NC(N)=Nc1ccc2[nH]c3c(c2c1)C[C@@]1(O)[C@H]2Cc4ccc(O)c5c4[C@@]1(CCN2CC1CC1)[C@H]3O5.O=C(O)C(F)(F)F.O=C(O)C(F)(F)F
1.0

hey, is Raw Signal for this one >= 60000? O=C(O)[C@@H]1C[C@H](C(=O)O)N1 [cis-Azetidine-2,4-dicarboxylic acid]
1.0

I'd appreciate it if you could say whether COc1[nH]c2ccc(F)cc2c1C(=O)OCC1CCN(CCNS(C)(=O)=O)CC1.NS(=O)(=O)O [GR 125487 sulfamate salt] has Raw Signal at least equal to 60000.
0.0

Reference source for all entries: paper PMC5706701
